experimental.target: panel of 442 kinases (Homo sapiens, UniProt P29376)
Construct: purchased Ambit Biosciences (scanMAXX KINOMEscan)
Sequence (P29376 17-864): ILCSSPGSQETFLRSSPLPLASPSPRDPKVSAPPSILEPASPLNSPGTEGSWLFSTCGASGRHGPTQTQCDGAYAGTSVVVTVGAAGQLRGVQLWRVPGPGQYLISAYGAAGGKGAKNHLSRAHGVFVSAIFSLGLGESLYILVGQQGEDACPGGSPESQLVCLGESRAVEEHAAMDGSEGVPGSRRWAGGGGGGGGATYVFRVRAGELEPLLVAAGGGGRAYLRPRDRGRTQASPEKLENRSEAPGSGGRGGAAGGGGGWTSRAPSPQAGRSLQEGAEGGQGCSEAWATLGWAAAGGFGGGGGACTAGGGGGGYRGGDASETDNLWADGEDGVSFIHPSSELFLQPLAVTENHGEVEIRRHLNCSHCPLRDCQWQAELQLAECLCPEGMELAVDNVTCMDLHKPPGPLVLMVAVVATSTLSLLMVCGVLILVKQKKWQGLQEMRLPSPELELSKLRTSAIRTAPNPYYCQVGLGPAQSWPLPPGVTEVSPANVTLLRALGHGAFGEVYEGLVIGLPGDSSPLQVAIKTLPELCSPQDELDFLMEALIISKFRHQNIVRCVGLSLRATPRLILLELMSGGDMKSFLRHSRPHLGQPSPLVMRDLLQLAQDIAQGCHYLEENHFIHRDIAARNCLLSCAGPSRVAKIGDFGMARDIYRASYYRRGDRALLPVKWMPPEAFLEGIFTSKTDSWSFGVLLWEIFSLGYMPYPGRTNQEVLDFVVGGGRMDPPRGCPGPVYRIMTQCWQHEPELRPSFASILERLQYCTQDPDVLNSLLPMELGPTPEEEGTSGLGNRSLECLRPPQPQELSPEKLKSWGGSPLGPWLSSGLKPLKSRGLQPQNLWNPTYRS
experiment.description: biochemical
Format: binding
conditions: kinase LTK; 1 µM; read-out: % of control at 1 µM

{"given.smiles": "COc1ncc(-c2ccc3nccc(-c4ccnnc4)c3c2)cc1NS(=O)(=O)c1ccc(F)cc1F", "unit.text": "%", "remaining activity at 1 µM": 88}
{"given.smiles": "Nc1cc(C(F)(F)F)c(-c2cc(N3CCOCC3)nc(N3CCOCC3)n2)cn1", "unit.text": "%", "remaining activity at 1 µM": 99}
{"given.smiles": "Cn1c(=O)n(-c2ccc(C(C)(C)C#N)cc2)c2c3cc(-c4cnc5ccccc5c4)ccc3ncc21", "unit.text": "%", "remaining activity at 1 µM": 23}
{"given.smiles": "FC(F)c1nc2ccccc2n1-c1nc(N2CCOCC2)nc(N2CCOCC2)n1", "unit.text": "%", "remaining activity at 1 µM": 72}

* * *

Let's look at some molecules and their measured remaining activity at 1 µM.
experimental.target: panel of 442 kinases (Homo sapiens)
Construct: purchased Ambit Biosciences (scanMAXX KINOMEscan)
experiment.description: biochemical
Type: binding
conditions: CLK3; 1 µM; read-out: % of control at 1 µM
measurement.type: remaining activity at 1 µM (%)

{"given.smiles": "COc1ncc(-c2ccc3nccc(-c4ccnnc4)c3c2)cc1NS(=O)(=O)c1ccc(F)cc1F", "quantitative.readout": 93}
{"given.smiles": "Nc1cc(C(F)(F)F)c(-c2cc(N3CCOCC3)nc(N3CCOCC3)n2)cn1", "quantitative.readout": 100}
{"given.smiles": "Cn1c(=O)n(-c2ccc(C(C)(C)C#N)cc2)c2c3cc(-c4cnc5ccccc5c4)ccc3ncc21", "quantitative.readout": 50}
{"given.smiles": "FC(F)c1nc2ccccc2n1-c1nc(N2CCOCC2)nc(N2CCOCC2)n1", "quantitative.readout": 100}

* * *

Let's look at some compounds and their measured remaining activity at 1 µM.
experimental.target: panel of 442 kinases (Homo sapiens)
Construct: purchased Ambit Biosciences (scanMAXX KINOMEscan)
experiment.description: biochemical
Assay type: binding
conditions: kinase PFTAIRE2; 1 µM; read-out: % of control at 1 µM
measurement.type: remaining activity at 1 µM (%)

{"given.smiles": "COc1ncc(-c2ccc3nccc(-c4ccnnc4)c3c2)cc1NS(=O)(=O)c1ccc(F)cc1F", "measurement.type": "remaining activity at 1 µM", "quantitative.readout": 100}
{"given.smiles": "Cn1c(=O)n(-c2ccc(C(C)(C)C#N)cc2)c2c3cc(-c4cnc5ccccc5c4)ccc3ncc21", "measurement.type": "remaining activity at 1 µM", "quantitative.readout": 82}
{"given.smiles": "FC(F)c1nc2ccccc2n1-c1nc(N2CCOCC2)nc(N2CCOCC2)n1", "measurement.type": "remaining activity at 1 µM", "quantitative.readout": 83}
{"given.smiles": "Nc1cc(C(F)(F)F)c(-c2cc(N3CCOCC3)nc(N3CCOCC3)n2)cn1", "measurement.type": "remaining activity at 1 µM", "quantitative.readout": 100}

* * *

experimental.target: panel of 442 kinases (Homo sapiens, UniProt Q9HBH9)
Construct: purchased Ambit Biosciences (scanMAXX KINOMEscan)
Sequence (Q9HBH9 whole entry): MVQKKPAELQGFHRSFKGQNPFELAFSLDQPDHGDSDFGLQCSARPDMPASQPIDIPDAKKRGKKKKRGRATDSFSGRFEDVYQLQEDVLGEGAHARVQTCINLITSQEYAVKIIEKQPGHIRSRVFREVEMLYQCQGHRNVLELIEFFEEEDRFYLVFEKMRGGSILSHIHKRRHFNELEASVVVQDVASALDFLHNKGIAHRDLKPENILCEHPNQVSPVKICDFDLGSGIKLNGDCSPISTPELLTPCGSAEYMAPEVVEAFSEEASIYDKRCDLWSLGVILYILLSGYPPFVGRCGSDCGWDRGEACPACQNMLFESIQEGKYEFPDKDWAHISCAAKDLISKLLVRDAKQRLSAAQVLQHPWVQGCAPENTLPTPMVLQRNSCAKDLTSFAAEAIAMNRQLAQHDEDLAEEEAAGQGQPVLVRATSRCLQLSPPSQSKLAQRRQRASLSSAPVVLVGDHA
experiment.description: biochemical
Assay type: binding
conditions: kinase MKNK2; 1 µM; read-out: % of control at 1 µM
Let's look at some molecules and their measured remaining activity at 1 µM.

{"given.smiles": "Cn1c(=O)n(-c2ccc(C(C)(C)C#N)cc2)c2c3cc(-c4cnc5ccccc5c4)ccc3ncc21", "remaining activity at 1 µM, %": 100}
{"given.smiles": "Nc1cc(C(F)(F)F)c(-c2cc(N3CCOCC3)nc(N3CCOCC3)n2)cn1", "remaining activity at 1 µM, %": 90}
{"given.smiles": "FC(F)c1nc2ccccc2n1-c1nc(N2CCOCC2)nc(N2CCOCC2)n1", "remaining activity at 1 µM, %": 100}
{"given.smiles": "COc1ncc(-c2ccc3nccc(-c4ccnnc4)c3c2)cc1NS(=O)(=O)c1ccc(F)cc1F", "remaining activity at 1 µM, %": 98}

This collection of values is drawn from paper PMC5564600.
